- test description: Metabolic stability in mouse liver microsomes
- Format: in vitro ADME
- experimental conditions: mouse liver microsomes 0.5 mg/mL, scaled
observable: CLint scaled (mL/min/kg)
Form entry: value (mL/min/kg) — number only.

For the molecule CCN1CCC(COc2ccc(Nc3ncc(F)c(-c4cc(F)c5nc6n(c5c4)C(C)(C)CC6)n3)nc2)CC1 , give its reported CLint scaled.
202

----------
- test description: Metabolic stability in rat liver microsomes
- Assay type: in vitro ADME
- experimental conditions: rat liver microsomes 0.5 mg/mL, scaled
observable: CLint scaled

Tell me measured CLint scaled for CCN1CCC(COc2ccc(Nc3ncc(F)c(-c4cc(F)c5nc6n(c5c4)C(C)(C)CC6)n3)nc2)CC1 please.
32.2 mL/min/kg
